# targetOrSystem: full-length WT STING (Homo sapiens, UniProt Q86WV6, H232R)
# Construct: AviTag (after gg linker) (C); HRV3C cleavage site (after gs linker) (C); HIS8 (C); made in house; host or cells: Trichoplusia ni (Hi-Five) insect cells infected with baculovirus (virus generated and amplified in Sf21 cells); used as a washed membrane preparation
# Sequence (Q86WV6 with tags, fused parts or gaps H232R): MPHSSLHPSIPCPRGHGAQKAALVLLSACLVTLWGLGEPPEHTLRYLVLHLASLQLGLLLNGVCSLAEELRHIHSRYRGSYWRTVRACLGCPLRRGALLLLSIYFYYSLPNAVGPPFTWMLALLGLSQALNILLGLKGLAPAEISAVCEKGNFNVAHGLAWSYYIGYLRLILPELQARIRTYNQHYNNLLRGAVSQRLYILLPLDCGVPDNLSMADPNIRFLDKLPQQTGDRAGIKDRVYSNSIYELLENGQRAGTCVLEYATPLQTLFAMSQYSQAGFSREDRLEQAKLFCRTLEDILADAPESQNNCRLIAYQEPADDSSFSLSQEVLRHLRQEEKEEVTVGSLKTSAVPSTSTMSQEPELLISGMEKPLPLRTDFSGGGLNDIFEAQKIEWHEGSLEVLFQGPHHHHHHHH
# experimentalDetails: 3H-cGAMP filtration binding assay (WT STING)
# testContext: competition with tritiated cGAMP, WT STING membrane
Assignment: determine reported EC50 for the given molecules.
Only the number, expressed in nM, is required.

In: Kindly state the measured EC50 obtained for COc1cc2sc(C(=O)CCC(=O)O)cc2nc1OCCCOc1c(OC)cc2sc(C(=O)C[C@H](C)C(=O)O)cc2c1F [Example 23] with full-length WT STING (Homo sapiens, UniProt Q86WV6, H232R).
Out: 2

In: Kindly state the measured EC50 obtained for COc1cc2sc(CC[C@H](C)C(=O)O)cc2c(F)c1OCCCCOc1c(OC)cc2sc(C(=O)C[C@H](C)C(=O)O)cc2c1F [Example 124] with full-length WT STING (Homo sapiens, UniProt Q86WV6, H232R).
Out: 3060

In: Kindly state the measured EC50 obtained for COc1cc2sc(C(=O)C[C@@H](C)C(=O)O)cc2cc1CCCOc1c(OC)cc2sc(C(=O)C[C@@H](C)C(=O)O)cc2c1F [Example 108] with full-length WT STING (Homo sapiens, UniProt Q86WV6, H232R).
Out: 244

In: Kindly state the measured EC50 obtained for COc1cc2sc(C(=O)CCC(=O)O)cc2cc1CCCOc1c(OC)cc2sc(C(=O)C[C@H](C)C(=O)O)cc2c1F [Example 33] with full-length WT STING (Homo sapiens, UniProt Q86WV6, H232R).
Out: 4

In: Kindly state the measured EC50 obtained for COc1cc2sc(C[C@@H]3CC[C@H]3C(=O)O)cc2c(F)c1OCCCOc1c(OC)cc2sc(C(=O)C[C@H](C)C(=O)O)cc2c1F [Example 135] with full-length WT STING (Homo sapiens, UniProt Q86WV6, H232R).
Out: 5

In: Kindly state the measured EC50 obtained for COc1cc2sc(C(=O)C[C@H](C)C(=O)O)cc2cc1OCCCOc1c(OC)cc2sc(C(=O)[C@@H]3CC[C@H]3C(=O)O)cc2c1F [Example 170] with full-length WT STING (Homo sapiens, UniProt Q86WV6, H232R).
Out: 3

In: Kindly state the measured EC50 obtained for COc1cc2sc(CC[C@H](C)C(=O)O)cc2c(F)c1OCCCOc1c(OC)cc2sc(C(=O)C[C@H](C)C(=O)O)cc2c1F [Example 101] with full-length WT STING (Homo sapiens, UniProt Q86WV6, H232R).
Out: 2

In: Kindly state the measured EC50 obtained for COc1cc2sc(C(=O)C[C@H](C)C(=O)O)cc2cc1OCCCCCOc1cc2cc(C(=O)C[C@H](C)C(=O)O)sc2cc1OC [Example 102] with full-length WT STING (Homo sapiens, UniProt Q86WV6, H232R).
Out: 213

In: Kindly state the measured EC50 obtained for COc1cc2sc(C(=O)C[C@H](C)C(=O)O)cc2nc1OCCCc1c(OC)cc2sc(C(=O)C[C@H](C)C(=O)O)cc2c1F [Example 159] with full-length WT STING (Homo sapiens, UniProt Q86WV6, H232R).
Out: 3

In: Kindly state the measured EC50 obtained for COc1cc2sc(C(=O)C[C@H](C)C(=O)O)cc2c(F)c1OCCCCOc1c(OC)cc2sc(C(=O)C[C@H](C)C(=O)O)cc2c1Br [Example 131] with full-length WT STING (Homo sapiens, UniProt Q86WV6, H232R).
Out: 242

In: Kindly state the measured EC50 obtained for COc1cc2sc(C(=O)C[C@H](C)C(=O)O)cc2c(F)c1OCCCOc1cc2sc(C(=O)C[C@H](C)C(=O)O)cc2nc1OC [Example 167] with full-length WT STING (Homo sapiens, UniProt Q86WV6, H232R).
Out: 19

In: Kindly state the measured EC50 obtained for COc1cc2sc(C(=O)C[C@H](C)C(=O)O)cc2c(Cl)c1OCCCOc1c(O)cc2sc(C(=O)C[C@H](C)C(=O)O)cc2c1F [Example 190] with full-length WT STING (Homo sapiens, UniProt Q86WV6, H232R).
Out: 2

In: Kindly state the measured EC50 obtained for COc1cc2sc(C(=O)CCC(=O)O)cc2nc1OCCOc1c(OC)cc2sc(C(=O)C[C@H](C)C(=O)O)cc2c1F [Example 83] with full-length WT STING (Homo sapiens, UniProt Q86WV6, H232R).
Out: 9
